Tested on: Tetrahymena pyriformis
assay_notes: 48 h IGC50 (-log10 mol/L); higher = more toxic
property_label: 48 h IGC50 (-log10 mol/L)

- chem_smiles: "O=C(NO)c1ccccc1O"
  property_label: "48 h IGC50 (-log10 mol/L)"
  readout_value: 3.38
- chem_smiles: "C=CCBr"
  property_label: "48 h IGC50 (-log10 mol/L)"
  readout_value: 3.57
- chem_smiles: "C=COC(=O)C(=C)C"
  property_label: "48 h IGC50 (-log10 mol/L)"
  readout_value: 2.38
- chem_smiles: "C/C=C/CC(=O)OC"
  property_label: "48 h IGC50 (-log10 mol/L)"
  readout_value: 2.72
- chem_smiles: "Nc1ccc(Br)cc1"
  property_label: "48 h IGC50 (-log10 mol/L)"
  readout_value: 4.01
- chem_smiles: "CCc1ccco1"
  property_label: "48 h IGC50 (-log10 mol/L)"
  readout_value: 2.48
- chem_smiles: "CCCC#CCCO"
  property_label: "48 h IGC50 (-log10 mol/L)"
  readout_value: 2.68
- chem_smiles: "CC(=O)c1cc[nH]c1"
  property_label: "48 h IGC50 (-log10 mol/L)"
  readout_value: 2.15
- chem_smiles: "CCCC/C=C/C=O"
  property_label: "48 h IGC50 (-log10 mol/L)"
  readout_value: 4.05
- chem_smiles: "CCCCCCCl"
  property_label: "48 h IGC50 (-log10 mol/L)"
  readout_value: 3.78

###

Recorded 48 h IGC50 (-log10 mol/L) values for a group of compounds are listed next.
Test system: Tetrahymena pyriformis
assay_notes: 48 h IGC50 (-log10 mol/L); higher = more toxic

- compound: "O=[N+]([O-])c1cc(Cl)c(Cl)c([N+](=O)[O-])c1Cl"
  48 h IGC50 (-log10 mol/L): 5.6
- compound: "O=[N+]([O-])c1cccc(CO)c1"
  48 h IGC50 (-log10 mol/L): 2.78
- compound: "O=Cc1cc(Br)ccc1O"
  48 h IGC50 (-log10 mol/L): 4.11
- compound: "OCCCCO"
  48 h IGC50 (-log10 mol/L): 0.764
- compound: "CC(=O)c1ccc(C)o1"
  48 h IGC50 (-log10 mol/L): 2.17
- compound: "N#Cc1cccnc1"
  48 h IGC50 (-log10 mol/L): 2.26
- compound: "O=C/C(Cl)=C/c1ccccc1"
  48 h IGC50 (-log10 mol/L): 4.73
- compound: "CCCCCC/C=C/C=O"
  48 h IGC50 (-log10 mol/L): 4.6
- compound: "CCCCCCCC(C)O (stereo unspecified)"
  48 h IGC50 (-log10 mol/L): 3.62
- compound: "CCCCS(=O)(=O)CCCC"
  48 h IGC50 (-log10 mol/L): 2.74
- compound: "COC(=O)CCCC(=O)OC"
  48 h IGC50 (-log10 mol/L): 1.83
- compound: "O=C(N=C=S)c1ccccc1"
  48 h IGC50 (-log10 mol/L): 3.1
- compound: "c1cc(CCc2ccncc2)ccn1"
  48 h IGC50 (-log10 mol/L): 2.97
- compound: "C=CCc1ccccc1O"
  48 h IGC50 (-log10 mol/L): 3.33
- compound: "CCCCCCO"
  48 h IGC50 (-log10 mol/L): 2.62
- compound: "Nc1ccccc1I"
  48 h IGC50 (-log10 mol/L): 3.35

###

System: Daphnia magna
assay_notes: 48 h LC50 (-log10 mol/L); higher = more toxic
# cutoff 5 applies to 48 h LC50 (-log10 mol/L); >= gives true, < gives false

- molecule: "Cc1cccc([N+](=O)[O-])c1C"
  cat: "false"
- molecule: "COc1ccc2cc([C@H](C)C(=O)O)ccc2c1"
  cat: "false"
- molecule: "COCC(C)O (stereo unspecified)"
  cat: "false"
- molecule: "COCC(C)OC(C)=O (stereo unspecified)"
  cat: "false"
- molecule: "CCNc1nc(Cl)nc(NC(C)C)n1"
  cat: "false"
- molecule: "Cc1c(COC(=O)[C@@H]2[C@H](/C=C(\\Cl)C(F)(F)F)C2(C)C)cccc1-c1ccccc1"
  cat: "true"
- molecule: "CC(C)CCCCCCCCCCNCCCCCCCCCCC(C)C"
  cat: "true"
- molecule: "ClCC1CO1 (stereo unspecified)"
  cat: "false"
- molecule: "ClC(Cl)C(Cl)(Cl)Cl"
  cat: "false"
- molecule: "c1ccc2cnccc2c1"
  cat: "false"
- molecule: "c1ccc2c(c1)ccc1ccccc12"
  cat: "true"
- molecule: "CC(C)CCCCCCCCCCN(CCCCCCCCCCC(C)C)CCCCCCCCCCC(C)C"
  cat: "true"
- molecule: "CC1(C)[C@H](C=C2CCCC2)[C@H]1C(=O)OCc1coc(Cc2ccccc2)c1"
  cat: "true"
- molecule: "S=C=NCCc1ccccc1"
  cat: "true"
- molecule: "CCN(CC)c1nc(C)cc(OP(=S)(OC)OC)n1"
  cat: "true"
- molecule: "C[C@]12C/C(=C/O)C(=O)C[C@@H]1CC[C@@H]1[C@@H]2CC[C@@]2(C)[C@H]1CC[C@]2(C)O"
  cat: "false"
- molecule: "CC(C)c1ccc2c(c1)CC[C@H]1[C@](C)(C(=O)O)CCC[C@]21C"
  cat: "false"
- molecule: "Clc1cccc(Cl)c1Cl"
  cat: "false"
- molecule: "CCCCC"
  cat: "false"
- molecule: "C=C[C@]1(C)C[C@@H](OC(=O)CSC2C[C@H]3CC[C@@H](C2)N3C)[C@]2(C)[C@H](C)CC[C@]3(CCC(=O)[C@H]32)[C@@H](C)[C@@H]1O (stereo partly specified)"
  cat: "false"
- molecule: "Cc1ccc(O)cc1"
  cat: "false"
- molecule: "CO/N=C(/C(=O)OC)c1ccccc1CO/N=C(\\C)c1cccc(C(F)(F)F)c1"
  cat: "true"
- molecule: "Cc1cc(Cl)ccc1O"
  cat: "true"
- molecule: "Nc1c(Cl)c(Cl)nc(C(=O)O)c1Cl"
  cat: "false"
- molecule: "Fc1ccc([C@@]2(Cn3cncn3)O[C@@H]2c2ccccc2Cl)cc1"
  cat: "false"
- molecule: "C1CO1"
  cat: "false"
- molecule: "O=C(Nc1ccc(Cl)cc1)Nc1ccc(Cl)c(Cl)c1"
  cat: "true"
- molecule: "COc1cc(Cl)c(Cl)c(Cl)c1O"
  cat: "true"
- molecule: "OCCO"
  cat: "false"
- molecule: "BrC=C(Br)Br"
  cat: "false"
- molecule: "Nc1nc(N)c2nc(-c3ccccc3)c(N)nc2n1"
  cat: "false"
- molecule: "CCNC(N)=S"
  cat: "false"
- molecule: "Clc1ccccc1"
  cat: "false"
- molecule: "Oc1cc(Cl)c(Cl)c(Cl)c1"
  cat: "true"
- molecule: "Cc1cn([C@H]2C=C[C@@H](CO)O2)c(=O)[nH]c1=O"
  cat: "false"
- molecule: "CCOP(=S)(OCC)Oc1ccc([N+](=O)[O-])cc1"
  cat: "true"
- molecule: "C/C=C(\\C)C(=O)O[C@H]1C[C@@H](OC(C)=O)[C@@]2(C(=O)OC)CO[C@H]3[C@@H](O)[C@@](C)([C@]45O[C@@]4(C)[C@H]4C[C@@H]5O[C@@H]5OC=C[C@@]54O)[C@H]4[C@]1(CO[C@]4(O)C(=O)OC)[C@@H]32"
  cat: "true"
- molecule: "ClCCOCCCl"
  cat: "false"
- molecule: "CC(C)CCCCCCCOP(=O)(Oc1ccccc1)Oc1ccccc1"
  cat: "true"
- molecule: "O=P(Oc1ccccc1)(Oc1ccccc1)Oc1ccccc1"
  cat: "true"
- molecule: "Cc1cc(C)cc(OCC2CNC(=O)O2)c1 (stereo unspecified)"
  cat: "false"
- molecule: "CCCCc1ccccc1"
  cat: "true"
- molecule: "CCCN(CCC)C(=S)SSC(=S)N(CCC)CCC"
  cat: "true"
- molecule: "CC1=CC(=O)c2ccccc2C1=O"
  cat: "true"
- molecule: "c1ccc2c(c1)Cc1ccccc1O2"
  cat: "false"
- molecule: "Nc1ccc(Cl)c(Cl)c1Cl"
  cat: "true"
- molecule: "COP(=S)(OC)SCN1C(=O)c2ccccc2C1=O"
  cat: "true"
- molecule: "CCNc1nc(NCC)nc(SC)n1"
  cat: "false"
- molecule: "NC(N)=Nc1nc(CSCC/C(N)=N/S(N)(=O)=O)cs1"
  cat: "false"
- molecule: "Clc1ccc(-c2ccc(Cl)c(Cl)c2)cc1Cl"
  cat: "true"

###

System: Tetrahymena pyriformis
assay_notes: 48 h IGC50 (-log10 mol/L); higher = more toxic

- compound: "C/C=C(\\C)C=O"
  target: "Tetrahymena pyriformis"
  48 h IGC50 (-log10 mol/L): 2.86
- compound: "CCOC(=O)CCC(=O)CCC(=O)OCC"
  target: "Tetrahymena pyriformis"
  48 h IGC50 (-log10 mol/L): 2.36
- compound: "CC(C)N"
  target: "Tetrahymena pyriformis"
  48 h IGC50 (-log10 mol/L): 2.14
- compound: "C#CC(O)CC (configuration not stated)"
  target: "Tetrahymena pyriformis"
  48 h IGC50 (-log10 mol/L): 1.82
- compound: "O=Cc1c(O)ccc2ccccc12"
  target: "Tetrahymena pyriformis"
  48 h IGC50 (-log10 mol/L): 4.32
- compound: "CCCCCC#N"
  target: "Tetrahymena pyriformis"
  48 h IGC50 (-log10 mol/L): 2.62
- compound: "C=CCOC(=O)CCC"
  target: "Tetrahymena pyriformis"
  48 h IGC50 (-log10 mol/L): 2.37
- compound: "c1ccc2nc3ccccc3nc2c1"
  target: "Tetrahymena pyriformis"
  48 h IGC50 (-log10 mol/L): 4.4
- compound: "CCCCCCC(=O)c1ccccc1"
  target: "Tetrahymena pyriformis"
  48 h IGC50 (-log10 mol/L): 4.56
- compound: "Oc1ccc(O)c(O)c1"
  target: "Tetrahymena pyriformis"
  48 h IGC50 (-log10 mol/L): 3.44
- compound: "CCCC#CCC(O)CC (configuration not stated)"
  target: "Tetrahymena pyriformis"
  48 h IGC50 (-log10 mol/L): 2.96
- compound: "CC(=O)c1ccc[nH]1"
  target: "Tetrahymena pyriformis"
  48 h IGC50 (-log10 mol/L): 2.09
- compound: "CC(=O)c1ccc(O)cc1O"
  target: "Tetrahymena pyriformis"
  48 h IGC50 (-log10 mol/L): 3.25
- compound: "CCC[C@H](O)c1ccccc1"
  target: "Tetrahymena pyriformis"
  48 h IGC50 (-log10 mol/L): 2.91
- compound: "N#Cc1ccc(Cl)s1"
  target: "Tetrahymena pyriformis"
  48 h IGC50 (-log10 mol/L): 2.92
- compound: "CCCC(CO)CCC"
  target: "Tetrahymena pyriformis"
  48 h IGC50 (-log10 mol/L): 3.13
- compound: "CCCCCC(=O)OC"
  target: "Tetrahymena pyriformis"
  48 h IGC50 (-log10 mol/L): 2.44
